- TARGET_OR_TEST_SYSTEM: M8
- EXPERIMENT: ELISA on coated antigen, column M8
Listing of entries alongside the reported absorbance at 490 nm.
Form: value (number only, do not type unit).

PDL1-30B1 (antibody, V domains shown, Only FR/CDR pieces are tied to the clone) VH: QVQLVESGGGVVQPGRSLRLSCAASGFTFSSYAMHWVRQGPGKGLEWVAVISYDGSNEFYADSVKGRFTISRDNSKNTLYLQMNSLRAEDTAVYYCARGDYNGVYMDVWGQGTTVTVSS VL: DIVMTQTPLSLSVTPGQPASISCKSSQSLLHSDGKTYLYWYLQKPGQSPQLLIYEVSKRFSGVPDRFSGSGSGTDFTLKIGRVEAEDVGVYYCMQGLHLPYTFGQGTKLEIK    2.7

From here, focus on the item given below.
Reported absorbance at 490 nm for PDL1-23E10 (scFv, V domains shown) VH: QMQLVESGAEVKKPGSSVKVSCKVSGENFRSHAISWVRQAPGQGLEWMGRIIPIVGLADYPQKFQGRVTISADESTGTAYMDLSSLRSEDTAVYYCVTGRPPWHWGQGILITVSS VL: QLVLTQPPSVSGAPGQRVTISCTGSSSNIGAGYDVHWYQQLPGTAPKLLIYSNRNRPSGVPDRFSGSKSGTSASLAITGLQAEDEADYYCQSYDSSLSGPNYVFGTGTKVTVL was 1
